- experimentalTarget: human Nav1.7 (Homo sapiens (Human), UniProt Q15858)
- Sequence (Q15858 whole entry): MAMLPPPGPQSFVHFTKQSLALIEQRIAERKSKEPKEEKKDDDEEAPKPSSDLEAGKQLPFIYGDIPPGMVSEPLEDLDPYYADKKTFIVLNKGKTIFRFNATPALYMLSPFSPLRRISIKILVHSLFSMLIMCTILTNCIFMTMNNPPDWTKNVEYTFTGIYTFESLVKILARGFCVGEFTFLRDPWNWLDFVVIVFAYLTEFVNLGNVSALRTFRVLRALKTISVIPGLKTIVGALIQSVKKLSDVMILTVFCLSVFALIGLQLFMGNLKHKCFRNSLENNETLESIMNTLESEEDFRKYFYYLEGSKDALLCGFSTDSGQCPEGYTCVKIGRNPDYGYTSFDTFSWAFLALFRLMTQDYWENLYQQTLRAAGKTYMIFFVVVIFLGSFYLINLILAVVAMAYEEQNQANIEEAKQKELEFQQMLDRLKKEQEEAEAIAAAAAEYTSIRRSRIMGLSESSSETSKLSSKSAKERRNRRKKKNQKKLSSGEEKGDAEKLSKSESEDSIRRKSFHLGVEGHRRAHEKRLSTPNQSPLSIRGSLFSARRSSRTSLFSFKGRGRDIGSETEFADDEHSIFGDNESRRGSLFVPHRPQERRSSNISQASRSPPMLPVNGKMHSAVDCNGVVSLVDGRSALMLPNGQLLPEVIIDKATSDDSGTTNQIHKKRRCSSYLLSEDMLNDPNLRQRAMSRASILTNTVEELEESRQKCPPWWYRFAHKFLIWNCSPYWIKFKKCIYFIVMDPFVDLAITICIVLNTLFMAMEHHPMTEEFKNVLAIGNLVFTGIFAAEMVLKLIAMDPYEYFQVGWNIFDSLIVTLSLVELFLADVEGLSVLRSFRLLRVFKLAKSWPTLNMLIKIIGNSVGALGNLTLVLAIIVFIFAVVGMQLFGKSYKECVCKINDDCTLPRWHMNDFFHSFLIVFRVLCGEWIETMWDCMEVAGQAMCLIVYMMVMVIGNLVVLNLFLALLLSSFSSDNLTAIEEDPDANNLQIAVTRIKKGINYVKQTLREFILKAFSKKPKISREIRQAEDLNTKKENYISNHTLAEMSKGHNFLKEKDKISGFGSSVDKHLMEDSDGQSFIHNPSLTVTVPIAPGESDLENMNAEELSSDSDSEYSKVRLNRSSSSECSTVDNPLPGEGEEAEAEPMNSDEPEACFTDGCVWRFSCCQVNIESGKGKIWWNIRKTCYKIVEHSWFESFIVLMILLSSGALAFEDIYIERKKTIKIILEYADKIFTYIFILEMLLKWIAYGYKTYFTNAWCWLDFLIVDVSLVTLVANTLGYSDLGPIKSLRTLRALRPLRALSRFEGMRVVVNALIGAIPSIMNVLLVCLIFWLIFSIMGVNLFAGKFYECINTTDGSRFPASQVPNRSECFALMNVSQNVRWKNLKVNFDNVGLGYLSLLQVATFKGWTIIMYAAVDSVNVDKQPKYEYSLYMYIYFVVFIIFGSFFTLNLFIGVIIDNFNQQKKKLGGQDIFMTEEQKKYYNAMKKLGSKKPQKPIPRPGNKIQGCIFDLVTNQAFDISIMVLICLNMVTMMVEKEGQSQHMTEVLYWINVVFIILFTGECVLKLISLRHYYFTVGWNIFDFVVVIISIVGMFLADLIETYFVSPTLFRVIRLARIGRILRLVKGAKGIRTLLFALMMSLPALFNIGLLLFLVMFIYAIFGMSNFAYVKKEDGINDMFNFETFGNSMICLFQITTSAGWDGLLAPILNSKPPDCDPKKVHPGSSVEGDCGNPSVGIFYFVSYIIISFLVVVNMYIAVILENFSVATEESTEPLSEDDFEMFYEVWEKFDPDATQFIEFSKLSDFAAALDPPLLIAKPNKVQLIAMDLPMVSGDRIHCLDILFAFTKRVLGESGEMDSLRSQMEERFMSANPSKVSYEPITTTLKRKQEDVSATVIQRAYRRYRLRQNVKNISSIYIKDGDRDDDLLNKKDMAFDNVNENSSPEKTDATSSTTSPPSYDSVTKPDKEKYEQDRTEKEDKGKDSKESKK
- assayOverview: Nav 1.7 in vitro PatchXpress (PX) assay
- Format: cell-based
pIC50: −log10 of the molar value.
endpointLabel: pIC50

>>> df
                                   molecule  endpointlabel  valueobserved
0  COc1cc(C(=O)NS(C)(=O)=O)ccc1-c1cnc(Oc2ccc3c(c2)CCC3)c(Cl)c1 [Example 580]          pIC50           7.18
1  Cc1cc(C(=O)NS(C)(=O)=O)c(F)cc1-c1cnc(O[C@@H](C)c2cc(Cl)ccc2Cl)c(Cl)c1 [Example 674]          pIC50           7.08
2  Cc1cc(C(=O)NS(C)(=O)=O)c(F)cc1-c1cnc(Oc2ccc(Br)cc2)c(Cl)c1 [Example 609]          pIC50           7.11
3  Cc1cc(C(=O)NS(C)(=O)=O)c(F)cc1-c1cnc(Oc2c(F)cc(F)cc2Cl)c(Cl)c1 [Example 666]          pIC50           7.30
4  Cc1cc(C(=O)NS(C)(=O)=O)c(F)cc1-c1cnc(O[C@H](C)C2CCC2)c(Cl)c1 [Example 641]          pIC50           6.96
5  CS(=O)(=O)NC(=O)c1ccc(-c2cnc(Oc3ccc(Cl)cc3)c(Cl)c2)c(OC(F)F)c1 [Example 466]          pIC50           7.16
6  Cc1cc(C(=O)NS(C)(=O)=O)c(F)cc1-c1cnc(Oc2c(C)ccc3ccccc23)c(Cl)c1 [Example 608]          pIC50           7.32
7  COc1ccc(Cl)c(Oc2ncc(-c3ccc(C(=O)NS(C)(=O)=O)cc3OC)cc2Cl)c1 [Example 369]          pIC50           7.04

Provenance of the data: patent US9663508B2
